systemUnderTest: hSK2 channels (Homo sapiens, UniProt P0DP23+Q9H2S1)
Construct: expressed in transfected cells; host or cells: HEK293
protocolNotes: Whole-cell patch-clamp recording of SK2 channel current (SC100)
Assay type: cell-based
details: Stimulating Concentration required for increasing the baseline current by 100%; HEK293 cells expressing hSK2; Table 4
measurementName: SC100 (μM)

CC1(O)CN(c2cc(Nc3ccc(F)cc3)nc(-n3ccc(CF)n3)c2)C1 [NSSy5632]; +++ (+++ means <200 nM)
Cc1ccn(-c2cc(CN3CCCC3=O)cc(Nc3ccc(Cl)cc3)n2)n1 [NSSy5701]; +++ (+++ means <200 nM)
Cc1ccn(-c2nc(Nc3c(C)cccc3Cl)cc(C(C)O)n2)n1 (centres unmarked) [IN10864-081-P1]; + (+ means >1 uM)
Cc1cc(C)n(-c2cc(C(C)O)cc(Nc3ccc(F)cc3)n2)n1 (centres unmarked) [IN10964-084-P1]; + (+ means >1 uM)

###

systemUnderTest: hSK2 channels (Homo sapiens, UniProt P0DP23+Q9H2S1)
Construct: expressed in transfected cells; host or cells: HEK293
protocolNotes: Whole-cell patch-clamp recording of SK2 channel current (SC100)
Type: cell-based
details: Stimulating Concentration required for increasing the baseline current by 100%; HEK293 cells expressing hSK2; Table 3
measurementName: SC100 uM

CC(=O)NCc1cc(Nc2ccc(F)cc2)nc(-n2cc(C)c(CO)n2)c1; + (+ means >1 uM)
Cc1cc(Nc2ccc(F)cc2)nc(-n2ccc(C(C)O)n2)n1 (stereo not shown); + (+ means >1 uM)

###

systemUnderTest: hSK2 channels (Homo sapiens, UniProt P0DP23+Q9H2S1)
Construct: expressed in transfected cells; host or cells: HEK293
protocolNotes: Whole-cell patch-clamp recording of SK2 channel current (SC100)
Format: cell-based
details: Stimulating Concentration required for increasing the baseline current by 100%; HEK293 cells expressing hSK2; Table 3
measurementName: SC100 uM

Previously resolved entries follow.
Cc1cc(C)n(-c2cc(N3CCNC(C(N)=O)C3)nc(Nc3ccc(F)c(F)c3)n2)n1 (centres unmarked) [Compound 116]; +++ (+++ means <200 nM)
Cc1cc(C)n(-c2nc(Nc3ccc(F)c(F)c3)cc(N3CCOC(C(N)=O)C3)n2)n1 (centres unmarked) [Compound 127]; + (+ means >1 uM)
CC(O)c1ccn(-c2nc(Nc3ccc(F)cc3)cc(N3CCOCC3)n2)n1 (centres unmarked) [Compound 146]; + (+ means >1 uM)
Cc1cc(C)n(-c2nc(Nc3ccc(F)cc3F)cc(N3CCN[C@H](C(N)=O)C3)n2)n1 (single isomer, unassigned) [Compound 128]; + (+ means >1 uM)

Answer with reported SC100 uM of CC(=O)NCc1cc(Nc2ccc(F)cc2)nc(-n2ccc(CF)n2)c1 [Compound 159]
+++ (+++ means <200 nM)

Assign SC100 uM to the following record: Cc1cc(C)n(-c2cc(N3CCO[C@H](C(N)=O)C3)nc(Nc3ccc(F)c(F)c3)n2)n1 (single isomer, unassigned) [Compound 131]
+++ (+++ means <200 nM)

Look up SC100 uM of Cc1cc(C)n(-c2nc(Nc3ccc(F)c(F)c3)cc(N3CCO[C@@H](CO)C3)n2)n1 (single isomer, unassigned) [Compound 121] and report it.
+++ (+++ means <200 nM)

Give reported SC100 uM value for CC(F)c1ccn(-c2nc(Nc3ccc(Cl)cc3)cc(N3CC4(COC4)C3)n2)n1 (centres unmarked) [Compound 152]
+++ (+++ means <200 nM)

Answer with the recorded SC100 uM for the compound listed here: Cc1cc(C)n(-c2cc(N3CCOC(C(N)=O)C3)nc(Nc3ccc(F)c(F)c3)n2)n1 (racemic) [Compound 129]
+++ (+++ means <200 nM)

Please supply the value of reported SC100 uM for the item CC(=O)N1CCN(c2cc(-n3nc(C)cc3C)nc(Nc3ccc(F)cc3)n2)CC1 [Compound 103]
+++ (+++ means <200 nM)

###

systemUnderTest: hSK2 channels (Homo sapiens, UniProt P0DP23+Q9H2S1)
Construct: expressed in transfected cells; host or cells: HEK293
protocolNotes: Whole-cell patch-clamp recording of SK2 channel current (SC100)
Assay type: cell-based
details: Stimulating Concentration required for increasing the baseline current by 100%; HEK293 cells expressing hSK2; Table 4
measurementName: SC100 (μM)

Cc1cc(Nc2ccc(F)cc2)nc(-c2nc(C)ccc2C)n1 [IN11237-001-P1]; + (+ means >1 uM)
Cc1cc(Nc2ccc(F)cc2)nc(-c2ccccn2)n1 [IN11121-037-P1]; + (+ means >1 uM)

###

systemUnderTest: hSK2 channels (Homo sapiens, UniProt P0DP23+Q9H2S1)
Construct: expressed in transfected cells; host or cells: HEK293
protocolNotes: Whole-cell patch-clamp recording of SK2 channel current (SC100)
Format: cell-based
details: Stimulating Concentration required for increasing the baseline current by 100%; HEK293 cells expressing hSK2; Table 4
measurementName: SC100 (μM)

Below, 5 compounds whose answers are already recorded.
Cc1cccc(-c2nccc(Nc3ccc(F)cc3)n2)n1 [IN11130-036-P1]; + (+ means >1 uM)
Cc1cc(Nc2ccc(F)cc2)nc(-n2ccc(C3CC3)n2)n1; + (+ means >1 uM)
COC(C)c1cc(Nc2ccc(F)cc2F)nc(-c2nc(C)cs2)n1 (stereo not drawn) [IN11059-067-P1]; + (+ means >1 uM)
COc1cc(Nc2ccc(F)cc2)nc(-c2cccc(C)n2)n1; + (+ means >1 uM)
Fc1ccc(Nc2ccnc(-n3ccc(C4CC4)n3)n2)cc1 [IN11166-018-P1]; + (+ means >1 uM)

Identify SC100 (μM) associated with the compound `CN(C)C1CN(c2cc(Nc3ccc(F)cc3)nc(-n3ccc(CF)n3)c2)C1`
+ (+ means >1 uM)

Name the recorded SC100 (μM) of the item Cc1cc(Nc2ccc(F)cc2)nc(-c2ccc(C)[nH]2)n1 [IN11196-053-P1] in your answer.
+ (+ means >1 uM)

###

systemUnderTest: hSK2 channels (Homo sapiens, UniProt P0DP23+Q9H2S1)
Construct: expressed in transfected cells; host or cells: HEK293
protocolNotes: Whole-cell patch-clamp recording of SK2 channel current (SC100)
Format: cell-based
details: Stimulating Concentration required for increasing the baseline current by 100%; HEK293 cells expressing hSK2; Table 3
Method: The biological activity of certain compounds were determined as follows. The ionic current through small-conductance Ca^2+-activated K^+ channels (SK channels, subtype 2) is recorded using the whole-cell configuration of the patch-clamp technique in a classic patch-clamp set-up using HEK293 tissue culture cells expressing hSK2 channels as described in Kasumu et. al., Chemistry & Biology 19, 1340-1353, Oct. 26, 2012. […]
measurementName: SC100 uM

CCn1cnc2c(-n3nc(C)cc3C)nc(Nc3ccc(F)c(F)c3)cc21; + (+ means >1 uM)
CC(=O)NCc1cc(Nc2ccc(F)cc2)nc(-n2cc(C)c(C(F)F)n2)c1; +++ (+++ means <200 nM)
CC(C)(O)c1ccn(-c2nc(Nc3ccc(F)cc3)cc(N3CC4(COC4)C3)n2)n1; + (+ means >1 uM)
CC(=O)N1CCN(c2cc(-n3nc(C)cc3C)nc(Nc3ccc(F)c(F)c3)n2)CC1; +++ (+++ means <200 nM)

API: the following record is the query input.
Dear colleague, please send me the reported SC100 uM for `Cc1cc(Nc2ccc(Cl)c(C(F)(F)F)c2)nc(-n2ccc(C)n2)n1` when you can.
+++ (+++ means <200 nM)
